Data origin: patent US20240246941A1

- system.under.test: MAGE-A11:PCF11 (Homo sapiens (Human))
- Sequence (P43364 218-429): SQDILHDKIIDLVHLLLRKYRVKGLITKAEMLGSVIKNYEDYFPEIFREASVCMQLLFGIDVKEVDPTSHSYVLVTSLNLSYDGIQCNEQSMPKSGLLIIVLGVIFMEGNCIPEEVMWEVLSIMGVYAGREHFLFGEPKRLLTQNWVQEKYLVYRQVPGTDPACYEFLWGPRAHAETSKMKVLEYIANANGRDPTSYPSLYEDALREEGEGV
- experiment.description: TR-FRET single point screening at 15 μM
- Assay type: binding
- Parameters: unit not given here
- cond: single point TR-FRET screening of quinoline compounds against MAGE-A11:PCF11; 15 μM
- From the text: TR-FRET Assays and High-throughput Screen. Terbium-anti-GST antibody, 1 M Tris pH 7.5 1 M MgCl2 and 1 M DTT were purchased from Invitrogen (Carlsbad, CA), BSA was purchased from Sigma (St. Louis, MO). Dimethyl sulfoxide (DMSO) was purchased from Fisher Scientific (Pittsburgh, PA). Black 384-well low volume plates and 384-well polypropylene compound plates were purchased from Corning Incorporated (Tewksbury, MA). […]
The threshold is inclusive: TR-FRET signal of exactly 20 counts as true (1); values below receive false (0).

compound="CCCN(CCCNc1ccnc2cc(C(F)(F)F)ccc12)Cc1ccccc1 [SJ000361256]" label_value="true (1)"
compound="CC(CCN(CCCNc1ccnc2cc(Cl)ccc12)Cc1ccccc1)c1ccccc1 (stereo not drawn) [SJ000311184]" label_value="false (0)"
compound="Clc1ccc2c(NCCCN(Cc3ccccc3)Cc3cccc4ccccc34)ccnc2c1 [SJ000361181]" label_value="true (1)"
compound="CCCN(CCCNc1ccnc2cc(C(F)(F)F)ccc12)Cc1ccoc1 [SJ000361267]" label_value="true (1)"
compound="Clc1ccc2c(NCCCNCc3ccncc3)ccnc2c1 [SJ000523049]" label_value="false (0)"
compound="CCCN(CCCNc1ccnc2cc(Cl)ccc12)Cc1ccc(C(=O)OC)cc1 [SJ000523042]" label_value="false (0)"
compound="CN(C)c1ccc(CN(CCCNc2ccnc3cc(Cl)ccc23)Cc2ccccc2)cc1 [SJ000522741]" label_value="false (0)"
compound="CCCN(CCCNc1ccnc2cc(C(F)(F)F)ccc12)Cc1ccc(Cl)cc1Cl [SJ000523078]" label_value="false (0)"
compound="CCCN(CCCNc1ccnc2cc(C(F)(F)F)ccc12)Cc1ccccc1C(F)(F)F [SJ000361259]" label_value="false (0)"
